species: Mus musculus; experiment: Binding affinity to prostaglandin receptor in Charles River CD-1 mouse ovary assessed as increase in cAMP accumulation using [8-14C]adenine at 10 ug/ml after 30 mins relative to control; type: tissue-based; details: Female gonad
readout name: fold change (FC)

compound	endpoint result
CCCCC[C@H](O)/C=C/[C@H]1[C@H](O)CC(=O)[C@@H]1CCCCCCC(=O)O	60
CCCCCC(O)CCC1N(CCCCCCC(=O)O)C(=O)CS1(=O)=O (mixture of isomers)	23
CCCCCC(O)CCCC(CCCCCCC(=O)O)S(C)(=O)=O (stereo not given)	24

(P) CCCCC[C@H](O)CC[C@H]1CCC(=O)[C@@H]1CCCCCCC(=O)O
(Q) CCCCCC(O)CCCC(CCCCCCC(=O)O)C(C)=O (stereo not given)
Request: Short answer wanted: higher fold change (FC), P or Q ? Returns: label corresponding to the selected item.
Result: P
